# Experimental Target: KLK5 (Homo sapiens, UniProt Q9Y337)
# Sequence (Q9Y337 23-293): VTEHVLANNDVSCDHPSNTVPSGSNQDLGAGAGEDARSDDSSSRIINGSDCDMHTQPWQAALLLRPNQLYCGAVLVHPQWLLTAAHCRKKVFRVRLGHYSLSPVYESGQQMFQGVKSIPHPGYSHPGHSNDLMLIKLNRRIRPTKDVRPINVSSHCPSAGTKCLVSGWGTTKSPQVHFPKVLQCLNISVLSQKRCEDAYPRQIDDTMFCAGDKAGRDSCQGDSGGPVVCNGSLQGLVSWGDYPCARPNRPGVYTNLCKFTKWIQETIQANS
Readout Name: IC50 (nM)
Numbers only, in nM.

Task item: Consider the compound O=C(O)c1cc2ccc(CO)cc2oc1=O [Compound II, 3-carboxy-7-hydroxymethyl coumarin] and give its measured IC50.
Reply: 83
